biological target: FGFR3 (Homo sapiens (Human)); assay: FGFR biochemical assay (LanthaScreen TR-FRET kinase assay), FGFR3
Sequence (P22607 23-806): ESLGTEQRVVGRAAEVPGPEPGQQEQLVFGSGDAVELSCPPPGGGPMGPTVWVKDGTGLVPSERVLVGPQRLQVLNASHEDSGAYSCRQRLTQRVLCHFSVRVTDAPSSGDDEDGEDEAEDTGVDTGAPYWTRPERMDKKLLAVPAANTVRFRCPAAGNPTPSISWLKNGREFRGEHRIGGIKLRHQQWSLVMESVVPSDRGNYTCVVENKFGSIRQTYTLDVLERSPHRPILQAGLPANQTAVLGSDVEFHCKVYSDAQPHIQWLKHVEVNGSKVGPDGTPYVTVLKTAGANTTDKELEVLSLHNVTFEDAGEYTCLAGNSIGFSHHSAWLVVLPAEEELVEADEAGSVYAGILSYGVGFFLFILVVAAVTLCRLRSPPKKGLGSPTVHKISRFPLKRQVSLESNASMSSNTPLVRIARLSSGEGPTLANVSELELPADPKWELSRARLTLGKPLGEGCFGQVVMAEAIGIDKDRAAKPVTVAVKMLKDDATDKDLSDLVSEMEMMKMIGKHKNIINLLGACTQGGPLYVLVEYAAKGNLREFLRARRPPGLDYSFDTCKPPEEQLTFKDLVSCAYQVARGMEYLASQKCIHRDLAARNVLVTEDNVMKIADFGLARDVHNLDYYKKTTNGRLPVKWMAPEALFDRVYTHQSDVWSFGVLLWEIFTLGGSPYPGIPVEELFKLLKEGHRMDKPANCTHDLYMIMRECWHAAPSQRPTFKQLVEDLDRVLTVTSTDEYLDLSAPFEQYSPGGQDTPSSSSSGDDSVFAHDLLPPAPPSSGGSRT
pIC50: −log10 of the molar value.
Assign pIC50 to each entry below.

Worked cases, pIC50 given:
- C=C(F)C(=O)Nc1ccc(-c2c(-c3ccc(C(=O)NCC4(F)COC4)cc3)c(C(N)=O)c3cnc(C)cn23)cc1 [Example 63]: 7.00 to 8.00
- C=C(F)C(=O)Nc1ccc(-c2c(-c3ccc(Oc4nccc(C)n4)cc3)c(C(N)=O)c3cnc(CCO)cn23)cc1 [Example 80]: 7.00 to 8.00
- C=C(F)C(=O)Nc1ccc(-c2c(-c3ccc(Oc4nccc(C)n4)c(F)c3)c(C(N)=O)c3cncnn23)cc1 [Example 108]: 6.00 to 7.00

Consider now this further compound.
Entry C=CC(=O)Nc1ccc(-c2c(-c3ccc(Oc4cccc(C)n4)cc3)c(C(N)=O)c3cnc(CN(C)C)cn23)cc1 [Example 29] — recorded pIC50 = 6.00 to 7.00

Values compiled from patent US20250382297A1.
